These entries and their values trace back to ChEMBL document CHEMBL5252649.

- EXPERIMENTAL SYSTEM: Protein cereblon/Hematopoietic prostaglandin D synthase (Homo sapiens, UniProt O60760+Q96SW2)
- Sequence (O60760 whole entry): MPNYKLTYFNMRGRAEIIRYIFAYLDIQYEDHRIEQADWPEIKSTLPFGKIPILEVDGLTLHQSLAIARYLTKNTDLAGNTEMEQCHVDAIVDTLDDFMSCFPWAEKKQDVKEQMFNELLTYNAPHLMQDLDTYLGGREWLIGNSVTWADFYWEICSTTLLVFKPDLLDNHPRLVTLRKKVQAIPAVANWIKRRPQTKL
- Sequence (Q96SW2 whole entry): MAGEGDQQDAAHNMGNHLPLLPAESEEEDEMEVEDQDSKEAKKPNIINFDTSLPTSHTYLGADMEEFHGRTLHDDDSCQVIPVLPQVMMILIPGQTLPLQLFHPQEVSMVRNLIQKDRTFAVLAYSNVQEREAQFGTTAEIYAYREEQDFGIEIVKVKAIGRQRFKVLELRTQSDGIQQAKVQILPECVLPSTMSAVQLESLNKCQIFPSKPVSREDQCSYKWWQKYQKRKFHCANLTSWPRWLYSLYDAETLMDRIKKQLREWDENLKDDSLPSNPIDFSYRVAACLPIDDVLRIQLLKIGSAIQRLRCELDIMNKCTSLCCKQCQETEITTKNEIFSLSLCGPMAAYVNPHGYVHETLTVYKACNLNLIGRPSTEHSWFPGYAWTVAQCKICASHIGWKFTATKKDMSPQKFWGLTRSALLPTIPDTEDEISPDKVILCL
- TEST DETAILS: PROTAC activity at CRBN/H-PGDS in human KU812 cells assessed as induction of H-PGDS degradation by measuring decrease in H-PGDS protein expression incubated for 24 hrs by western blot analysis
- Assay type: cell-based
- PROTOCOL CONDITIONS: ku812 cell line
Cut-off 0.04 nM on DC50: below means met, at or above means not met.

>>> class_assignment("Cn1cccc1C(=O)N1CCN(C(=O)Nc2ccc(N3CCC(C(=O)N4CCN(c5ccc6c(c5)C(=O)N(C5CCC(=O)NC5=O)C6=O)CC4)CC3)cc2)CC1 (stereo unspecified)")
"met"
>>> class_assignment("O=C1CCC(N2C(=O)c3ccc(N4CCN(C(=O)C5CCN(c6ccc(NC(=O)c7cnc(Oc8ccccc8)nc7)cc6)CC5)CC4)cc3C2=O)C(=O)N1 (stereo unspecified)")
"not met"
>>> class_assignment("O=C1CCC(c2ccc(NCC(=O)N3CCN(C(=O)C4CCN(c5ccc(NC(=O)c6cnc(Oc7ccccc7)nc6)cc5)CC4)CC3)cc2)C(=O)N1 (stereo unspecified)")
"not met"
>>> class_assignment("Cn1cccc1C(=O)N1CCN(C(=O)Nc2ccc(N3CCC(C(=O)N4CCN(c5cccc6c5C(=O)N(C5CCC(=O)NC5=O)C6=O)CC4)CC3)cc2)CC1 (stereo unspecified)")
"met"
>>> class_assignment("O=C1CCC(N2C(=O)c3cccc(N4CCN(C(=O)C5CCN(c6ccc(NC(=O)c7cnc(Oc8ccccc8)nc7)cc6)CC5)CC4)c3C2=O)C(=O)N1 (stereo unspecified)")
"met"
>>> class_assignment("O=C1CCC(N2C(=O)c3cc(F)c(N4CCN(C(=O)C5CCN(c6ccc(NC(=O)c7cnc(Oc8ccccc8)nc7)cc6)CC5)CC4)cc3C2=O)C(=O)N1 (stereo unspecified)")
"not met"
